Entries and their ASMS ratio (%) n = 2 values follow.
tested-system: Bcl-2 protein (Recombinant Human Bcl-2 Protein) (Homo sapiens, UniProt P10415)
Construct: purchased Novus NBP2-34889
Sequence (P10415 whole entry): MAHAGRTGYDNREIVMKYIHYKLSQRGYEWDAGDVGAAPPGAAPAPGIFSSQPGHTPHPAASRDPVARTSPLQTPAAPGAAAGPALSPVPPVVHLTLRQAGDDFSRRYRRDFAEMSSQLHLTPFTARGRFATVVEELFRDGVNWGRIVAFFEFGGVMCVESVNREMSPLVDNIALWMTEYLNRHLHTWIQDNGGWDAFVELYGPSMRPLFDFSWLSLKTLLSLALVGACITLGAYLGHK
assay-procedure: Binding evaluation of mixture library compounds to Bcl-2 using AS-MS (affinity selection mass spectrometry)
measurement-parameters: AS-MS, mixture library, Bcl-2; replicate n = 2; ASMS Ratio(%)=(A−C)/B×100
result-type: ASMS ratio (%) n = 2

CCOc1cncc(C#Cc2ccccc2C(=O)N2CCN(c3ccc(C(=O)NS(C)(=O)=O)nn3)CC2)c1; 0.0%
CCOc1cccc(-c2cc(C(=O)N3CCN(c4ccc(C(=O)NS(=O)(=O)c5ccc(NCCSc6ccccc6)c([N+](=O)[O-])c5)cc4)CC3)cc(C(F)(F)F)c2)c1; 4.6%
CCOc1cccc(-c2cc(CN3CCN(c4ccc(C(=O)NS(=O)(=O)CC56CC7CC(CC(C7)C5)C6)cc4)CC3)cc(OC(C)C)c2)c1; −5.3%
